measured_on: Recombinant human ATX (Homo sapiens (Human), UniProt Q13822)
run_description: ATX inhibition assay (choline release, Amplex Red fluorescence)
test_parameters: ATX 10 nM, LPC 18:1 10 μM, 37° C., 20 min pre-incubation; mean of n≧2
For each record, write down the corresponding pIC50.
Hey, just a heads up that pIC50 is the negative log base 10 of the concentration in molar.

Fill in the recorded pIC50 for this compound, with Recombinant human ATX (Homo sapiens (Human), UniProt Q13822) as test system: Cc1nnn(Cc2cc(Cl)ccc2/C=C/C(=O)N2CCC(C(O)c3ccc(Cl)cc3)CC2)n1 (racemic) [Example 66]
8.22

Fill in the recorded pIC50 for this compound, with Recombinant human ATX (Homo sapiens (Human), UniProt Q13822) as test system: Cc1nnn(Cc2cc(Cl)ccc2/C=C/C(=O)N2CCC(Cn3nnc(C)n3)CC2)n1 [Example 109]
7.80

Fill in the recorded pIC50 for this compound, with Recombinant human ATX (Homo sapiens (Human), UniProt Q13822) as test system: Cc1nnn(Cc2cc(C(F)(F)F)ccc2/C=C/C(=O)N2CCC(N(C)S(=O)(=O)C3CC3)CC2)n1 [Example 112]
7.85

Fill in the recorded pIC50 for this compound, with Recombinant human ATX (Homo sapiens (Human), UniProt Q13822) as test system: Cc1nnn(Cc2cc(Cl)ccc2/C=C/C(=O)N2CCC(CCNC(=O)c3c[nH]nn3)CC2)n1 [Example 145]
7.89

Fill in the recorded pIC50 for this compound, with Recombinant human ATX (Homo sapiens (Human), UniProt Q13822) as test system: Cc1nnn(Cc2cc(OC(F)(F)F)ccc2/C=C/C(=O)N2CCC(c3nnc(C)o3)CC2)n1 [Example 54]
8.05

Fill in the recorded pIC50 for this compound, with Recombinant human ATX (Homo sapiens (Human), UniProt Q13822) as test system: Cc1cnn(C2CCN(C(=O)/C=C/c3ccc(Cl)cc3Cn3nnc(C)n3)CC2)c1 [Example 28]
8.20

The origin of these recorded values is patent US9763957B2.
